Catalogue of growth readings, one per entry.
system: M14 melanoma; test: NCI-60 one-dose screen, 48 h (100 = growth as untreated, 0 = no growth, -100 = all killed); details: 10 µM unless noted
The panel holds about 83,000 compounds, 20% with a hit somewhere; the sample as a whole holds those more often.
readout: growth (%)

- CCN1C(=O)N(CC)C2C1NN=c1s/c(=C\c3ccco3)c(=O)n12 (stereo not drawn): 5.24
- Cc1cc(-c2ccccc2)on1: 105
- CCOC(=O)c1cc(N)nc2ccccc12: 108
- COc1cc(NCC(O)CN(CC(C)C)CC(C)C)c2ncccc2c1 (stereo not drawn): 87.7
- Clc1cccc(CNc2c3ccccc3nc3ccccc23)c1: 35.5
- COc1cc(OC)c(C(=O)/C=C/c2cccc(OC(C)=O)c2)cc1CC=C(C)C: 87.6
- CCOC(=O)Cn1c(-c2nonc2NC(=O)c2ccccc2F)nc2ccccc21: 61.5
- CC(C)c1ccc(-c2cnc3nonc3n2)cc1: 7.59
- Clc1ccc(-c2nc(-c3cccs3)no2)cc1: 105
- CS(=O)(=O)c1ccc(C(=O)N/N=C/c2ccccc2O)cc1: 32.5
- NC(N)=N/N=C/c1cccc(Cl)c1Cl: 62.7
- CC(C)[C@@H]1C=C2CC[C@H]3[C@](C)(CN)CCC[C@]3(C)[C@H]2CC1: 89.3
- CCOC(=O)c1cc(C(=O)OCC)c(C)nc1C: 111
- Cc1c(C(N)=O)sc2ncn(CC(=O)NN=C3CCCCC3)c(=O)c12: 105
- COc1cc(-c2nc(-c3ccc(-c4nc5ccc(F)cc5[nH]4)cc3)no2)cc(OC)c1OC: 43.6
- C#CCNc1nc(NCCNC(=O)CCl)nc(N(C)CCCCc2ccccc2)n1: 78.5
- COc1cccc(NC(=O)OC(C)C)c1: 112
- CN1C2CCC1/C(=C\c1ccc(F)cc1)C(=O)/C2=C/c1ccc(F)cc1: 41.2
- CCn1c(Cc2ccccc2Nc2c(Cl)cccc2Cl)nnc1SCC(=O)Nc1cccc(OC)c1: 76.4
- COc1ccc(CNc2c3ccccc3nc3ccc(OC)cc23)cc1: 19.5
- Cc1ccncc1NC=O: 96.4
- COc1cc(C2CC(c3ccc(Cl)cc3)=NN2C(C)=O)ccc1Oc1ccnc2cc(Cl)ccc12 (stereo not drawn): 79.9
- O=C1/C(=C/N2N=C(c3ccc(Cl)cc3)CC2c2ccccc2O)SC(=S)N1c1cccc(C(F)(F)F)c1 (stereo not drawn): 48.2
